In this section, each of the compounds is paired with its reported Fold drop in potency vs. 2-chloropyridine analog.
target: human β3-AR (Homo sapiens); construct: expressed in transfected cells; host or cells: CHO (Chinese hamster ovary) cells, stably transfected; test: cAMP functional agonist assay (LANCE TR-FRET) in CHO cells expressing cloned human β3-AR; assay type: cell-based; details: EC50 of comparative example divided by EC50 of corresponding 2-chloropyridine compound
The response must be a number in fold with no trailing unit.

// solved cases for Fold drop in potency vs. 2-chloropyridine analog follow
CN(Cc1cc(C2CC2)[nH]n1)C(=O)c1ccc(C[C@@H]2CC[C@H]([C@H](O)c3ccccc3)N2)cc1 ... 2.0
CCN(Cc1cccnc1)C(=O)c1ccc(C[C@@H]2CC[C@H]([C@H](O)c3ccccc3)N2)cc1 ... 2.0

Recorded Fold drop in potency vs. 2-chloropyridine analog for COC(CN(C)C(=O)c1ccc(C[C@@H]2CC[C@H]([C@H](O)c3ccccc3)N2)cc1)c1cccc(=O)[nH]1 (stereo partly drawn) , please?
2.0

---

biological target: human β3-AR (Homo sapiens, UniProt P13945); construct: expressed in transfected cells; host or cells: CHO (Chinese hamster ovary) cells, stably transfected; assay: cAMP functional agonist assay (LANCE TR-FRET) in CHO cells expressing cloned human β3-AR; type: cell-based; details: CHO cells stably expressing cloned human β3-adrenoceptor; cAMP release; read-out: Human β3-AR Agonism EC50
Sequence (P13945 whole entry): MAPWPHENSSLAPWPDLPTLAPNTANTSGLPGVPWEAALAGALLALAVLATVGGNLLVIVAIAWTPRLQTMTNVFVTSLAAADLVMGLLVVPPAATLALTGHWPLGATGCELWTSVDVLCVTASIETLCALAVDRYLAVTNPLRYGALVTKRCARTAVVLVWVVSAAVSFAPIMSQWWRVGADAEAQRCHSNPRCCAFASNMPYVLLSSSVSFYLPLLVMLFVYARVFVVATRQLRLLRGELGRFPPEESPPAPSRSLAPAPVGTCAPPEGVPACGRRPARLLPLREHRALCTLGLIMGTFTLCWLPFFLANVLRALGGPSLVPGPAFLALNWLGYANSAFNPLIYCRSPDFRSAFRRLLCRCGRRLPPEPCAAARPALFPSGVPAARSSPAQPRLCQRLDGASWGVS
Mark class 1 only for EC50 values smaller than 20 nM; exact matches and larger values are class 0.

CN(Cc1cccnc1)C(=O)c1ccc(C[C@@H]2CC[C@H]([C@H](O)c3ccc(NC4CC4)nc3)N2)cc1 ... class 0
Cc1cc(CN(C)C(=O)c2ccc(C[C@@H]3CC[C@H]([C@H](O)c4cncc(F)c4)N3)cc2)[nH]n1 ... class 0
CCN(Cc1cccnc1)C(=O)c1ccc(C[C@@H]2CC[C@H]([C@H](O)c3ccccc3)N2)cc1 ... class 1
CN(Cc1cncc(-c2nn[nH]n2)c1)C(=O)c1ccc(C[C@@H]2CC[C@H]([C@H](O)c3ccccc3)N2)cc1 ... class 0
Cc1[nH]nc(CN(C)C(=O)c2ccc(C[C@@H]3CC[C@H]([C@H](O)c4ccccc4)N3)cc2)c1O ... class 1

Quick check: EC50 of CN(Cc1ccnnc1)C(=O)c1ccc(C[C@@H]2CC[C@H]([C@H](O)c3ccccc3)N2)cc1 under 20 nM?
class 0

Find out if reported EC50 for CN(Cc1n[nH]c2c1CCCC2)C(=O)c1ccc(C[C@@H]2CC[C@H]([C@H](O)c3ccc(Cl)nc3)N2)cc1 is less than 20 nM
class 1

A record lists CN(Cc1ccc(Cl)nc1)C(=O)c1ccc(C[C@@H]2CC[C@H]([C@H](O)c3ccc(Cl)nc3)N2)cc1 . Is its EC50 below 20 nM?
class 1

Strictly below 20 nM in EC50? CCN(Cc1cccnc1)C(=O)c1ccc(C[C@@H]2CC[C@H]([C@H](O)c3ccc(Cl)nc3)N2)cc1
class 1

Please check: EC50 for CN(Cc1cc(C(F)(F)F)[nH]n1)C(=O)c1ccc(C[C@@H]2CC[C@H]([C@H](O)c3ccccc3)N2)cc1 , strictly under 20 nM or not?
class 1

---

molecular target: human β3-AR (Homo sapiens, UniProt P13945); construct: expressed in transfected cells; host or cells: CHO (Chinese hamster ovary) cells, stably transfected; assay: cAMP functional agonist assay (LANCE TR-FRET) in CHO cells expressing cloned human β3-AR; format: cell-based; details: percent maximum activation relative to isoproterenol
Catalogue of Human β3-AR Agonist Activity (%) readings, one per entry.
Field format: number, assumed %, no unit text.

Here's what some known entries look like.
CC(C)[C@H](c1nn(C)c(=O)o1)N(C)C(=O)c1ccc(C[C@@H]2CC[C@H]([C@H](O)c3ccccc3)N2)cc1 ... 115
Cc1[nH]nc(CN(C)C(=O)c2ccc(C[C@@H]3CC[C@H]([C@H](O)c4ccc(Cl)nc4)N3)cc2)c1Cl ... 94
Cc1cc(CN(C)C(=O)c2ccc(C[C@@H]3CC[C@H]([C@H](O)c4ccc(F)cc4)N3)cc2)n[nH]1 ... 105
CN(Cc1cncc(-c2nnn[nH]2)c1)C(=O)c1ccc(C[C@@H]2CC[C@H]([C@H](O)c3ccc(Cl)nc3)N2)cc1 ... 94
Cc1n[nH]c(CN(C)C(=O)c2ccc(C[C@@H]3CC[C@H]([C@H](O)c4ccccc4)N3)cc2)c1Cl ... 112
CC(O)c1cncc(CN(C)C(=O)c2ccc(C[C@@H]3CC[C@H]([C@H](O)c4ccccc4)N3)cc2)c1 (stereo partly shown) ... 104

GET /values?readout=Human β3-AR Agonist Activity (%)&item= Cc1[nH]nc(CN(C)C(=O)c2ccc(C[C@@H]3CC[C@H]([C@H](O)c4ccccc4)N3)cc2)c1O
112

Requested read-out: Human β3-AR Agonist Activity (%). Entry: CN(Cc1cccnc1)C(=O)c1ccc(C[C@@H]2CC[C@H]([C@H](O)c3cccnc3)N2)cc1
85

// Human β3-AR Agonist Activity (%) lookup, key: CN(Cc1cncc(C(C)(C)O)c1)C(=O)c1ccc(C[C@@H]2CC[C@H]([C@H](O)c3ccc(Cl)nc3)N2)cc1
94

Returns the measured Human β3-AR Agonist Activity (%) for the input compound. Input: CC(=O)c1ccc([C@@H](O)[C@H]2CC[C@@H](Cc3ccc(C(=O)N(C)Cc4cccnc4)cc3)N2)cn1
38

Form field: reported Human β3-AR Agonist Activity (%) of CN(Cc1cncc(C#N)c1)C(=O)c1ccc(C[C@@H]2CC[C@H]([C@H](O)c3ccc(Cl)nc3)N2)cc1
91

Would you kindly share the measured Human β3-AR Agonist Activity (%) for COc1ccc([C@@H](O)[C@H]2CC[C@@H](Cc3ccc(C(=O)N(C)Cc4cccnc4)cc3)N2)cn1 ?
93

---

target: human β3-AR (Homo sapiens); construct: expressed in transfected cells; host or cells: CHO (Chinese hamster ovary) cells, stably transfected; assay: cAMP functional agonist assay (LANCE TR-FRET) in CHO cells expressing cloned human β3-AR; format: cell-based; conditions: percent maximum activation relative to isoproterenol
Property: Human β3-AR Agonist Activity (%); scope: individual molecules
Unit % implied. Number only.

As a guide, the following entries are already answered.
CN(Cc1cccnc1)C(=O)c1ccc(C[C@@H]2CC[C@H]([C@H](O)c3ccc(C#N)nc3)N2)cc1 ... 77
Cc1cc(CN(C)C(=O)c2ccc(C[C@@H]3CC[C@H]([C@H](O)c4ccc(Cl)nc4)N3)cc2)cnc1F ... 96
CC(c1cnccn1)N(C)C(=O)c1ccc(C[C@@H]2CC[C@H]([C@H](O)c3ccc(F)cc3)N2)cc1 (stereo partly drawn) ... 83
CCN(Cc1cccnc1)C(=O)c1ccc(C[C@@H]2CC[C@H]([C@H](O)c3ccccc3)N2)cc1 ... 103
CC(O)c1cncc(CN(C)C(=O)c2ccc(C[C@@H]3CC[C@H]([C@H](O)c4ccc(Cl)nc4)N3)cc2)c1 (stereo partly drawn) ... 96

Next molecule, Human β3-AR Agonist Activity (%) to be filled in.
What does the record list as Human β3-AR Agonist Activity (%) for CN(Cc1cccc(=O)[nH]1)C(=O)c1ccc(C[C@@H]2CC[C@H]([C@H](O)c3ccc(Cl)cc3)N2)cc1 ?
99

---

target: human β3-AR (Homo sapiens, UniProt P13945); construct: expressed in transfected cells; host or cells: CHO (Chinese hamster ovary) cells, stably transfected; assay: cAMP functional agonist assay (LANCE TR-FRET) in CHO cells expressing cloned human β3-AR; type: cell-based; conditions: CHO cells stably expressing cloned human β3-adrenoceptor; cAMP release; read-out: Human β3-AR Agonism EC50
Endpoint label: pEC50
In plain terms, pEC50 is the concentration in mol/L turned into minus its base-10 logarithm.

Consider the following illustrative entries.
C[C@H](c1nn(C)c(=O)o1)N(C)C(=O)c1ccc(C[C@@H]2CC[C@H]([C@H](O)c3ccc(Cl)nc3)N2)cc1 [Example 18-A] ... 8.10
Cc1cc(CN(C)C(=O)c2ccc(C[C@@H]3CC[C@H]([C@H](O)c4ccc(F)cc4)N3)cc2)n[nH]1 [Example 4-F] ... 7.72
CN(Cc1ccc(=O)[nH]c1)C(=O)c1ccc(C[C@@H]2CC[C@H]([C@H](O)c3ccc(Cl)nc3)N2)cc1 [Example 28-A] ... 6.76

Which pEC50 is listed for COC(=O)c1cncc(CN(C)C(=O)c2ccc(C[C@@H]3CC[C@H]([C@H](O)c4ccc(Cl)cc4)N3)cc2)c1 [Example 34-G] ?
7.74

Look at this compound and give its reported pEC50. CC(c1cnccn1)N(C)C(=O)c1ccc(C[C@@H]2CC[C@H]([C@H](O)c3ccc(Cl)nc3)N2)cc1 (some centres unmarked) [Example 41-A]
8.70

---

target: human β3-AR (Homo sapiens, UniProt P13945); construct: expressed in transfected cells; host or cells: CHO (Chinese hamster ovary) cells, stably transfected; assay: cAMP functional agonist assay (LANCE TR-FRET) in CHO cells expressing cloned human β3-AR; type: cell-based; settings: percent maximum activation relative to isoproterenol
Endpoint label: Human β3-AR Agonist Activity (%)
Write it as a number; the unit % goes unstated.

CCOc1cc(CN(C)C(=O)c2ccc(C[C@@H]3CC[C@H]([C@H](O)c4ccc(Cl)nc4)N3)cc2)[nH]n1 ... 95
CN(Cc1n[nH]c2c1CCC2)C(=O)c1ccc(C[C@@H]2CC[C@H]([C@H](O)c3ccc(Cl)nc3)N2)cc1 ... 99
CN(C(=O)c1ccc(C[C@@H]2CC[C@H]([C@H](O)c3ccccc3)N2)cc1)C1CCc2ncccc21 (stereo partly shown) ... 106
CCc1[nH]nc(CN(C)C(=O)c2ccc(C[C@@H]3CC[C@H]([C@H](O)c4ccccc4)N3)cc2)c1C ... 120
CN(Cc1cncc(C(C)(C)O)c1)C(=O)c1ccc(C[C@@H]2CC[C@H]([C@H](O)c3ccc(Cl)cc3)N2)cc1 ... 98

Fill in the blank: the reported Human β3-AR Agonist Activity (%) of COCCN(C)C(=O)c1ccc(C[C@@H]2CC[C@H]([C@H](O)c3ccccc3)N2)cc1 is ____.
93

Reported Human β3-AR Agonist Activity (%), compound CN(Cc1cccnc1)C(=O)c1ccc(C[C@@H]2CC[C@H]([C@H](O)c3cncc(F)c3)N2)cc1 : ____
91

Reference source: patent US20160235727A1
